system: Colon cancer organoid; test: Identification of compartment-specific drug sensitivities in O20 CRC organoid-stroma F20 CAF co-cultures. Organoid is transduced with Lucferase2-P2A-EGFP lentivirus, fibroblast with Renilla-dsRed lentivirus. Dual-Glo Luciferase assay is used to report viability data.; assay type: functional, Homo sapiens; parameters: dose or concentration left out as unconfirmed; details: Transduced with Renilla-dsRed lentivirus
Each item that follows carries a reported Cell Viability.
metric-name: Cell Viability (%)

1) O=C(O)[C@@H]1[C@@H](Cn2nnc3ccccc3c2=O)CC[C@H]1C(=O)c1ccc(OCCC2CCOCC2)cc1 [BAY-694] : 91.7477
2) O=C(Nc1cnc(Oc2ccc(F)cc2)nc1)N1CCc2ncccc2[C@@H]1c1ccc(F)cc1 [BAY-899] : 104.61
3) C[C@H](NC(=O)c1cnc2n1[C@](C)(Cc1ccc(C#N)cc1)C(=O)N2c1cc(Cl)c(F)c(Cl)c1)C(=O)NC1(c2ccccn2)CC1 [BI 1950] : 97.0159
4) N#CC1(c2ccccn2)CCN(Cc2cc(C(=O)O)c(=O)n3ccccc23)CC1 [MSD-M1PAM] : 117.537
5) O=c1nc(-c2ccccn2)sc2ccccc12 [BTZO-1] : 104.485
6) Cc1sc2c(c1C)C(c1ccc(Cl)cc1)=N[C@H](CC(=O)OC(C)(C)C)c1nnc(C)n1-2 : 113.657
7) CC(C)S(=O)(=O)c1ccc2nccc(Nc3ccc4scnc4c3)c2c1 : 98.2209
8) O=C(CNCc1cc2ccccc2[nH]1)N[C@H]1CC[C@@H](c2nc3ccccc3[nH]2)CC1 : 124.153
9) CNCCN1CCC(c2cc(CN(C)C(=O)c3cccc(Oc4ccccc4)c3)ccn2)CC1 : 133.473
10) Clc1cc2c(NC3CCCC3)nnc(-c3ccncc3)c2cc1Cl : 128.6
11) CCCc1cc(C)[nH]c(=O)c1CNC(=O)c1cc(-c2ccnc(N3CCN(C)CC3)c2)cc2c1cnn2C(C)C : 146.305
12) CC(C)C(=O)Nc1n[nH]c2cc(-c3cccc(NS(=O)(=O)C4CC4)c3)ccc12 : 102.387
13) COc1cc(N2CCC(O)CC2)ccc1Nc1cc(Nc2ccccc2S(=O)(=O)C(C)C)c2cc[nH]c2n1 : 84.332
14) CC(=O)N1CCC(c2ccc(C(=O)NC3=NCCN3)cc2C(F)(F)F)CC1 [BI 0054] : 122.015
15) CC(=O)Nc1c(F)cc(C(=O)N[C@H]2CC[C@H](O)CC2)cc1O[C@@H](C)c1ccccc1 [GSK046] : 118.66
16) CC#CC(=O)N1CCC[C@H]1c1nc(-c2ccc(C(=O)Nc3ccccn3)cc2)c2c(N)nccn12 [ACALABRUTINIB] : 99.9657
17) CC(=O)Nc1ncc(CN2CCC[C@H](Cc3cc(C)nc(C)c3)C2)s1 [JNJ-65355394] : 103.797
18) Cc1nc(N2CC[C@H](O)C2)ncc1-c1cc(C(F)(F)F)cc2[nH]ncc12 : 153.575
19) CCCOc1ccn2c(C(C)=O)cc(-c3ccccc3S(C)(=O)=O)c2c1 : 117.742
20) CCn1cc(-c2ccnc3[nH]c(-c4cccc(CN(C)C)c4)cc23)c(-c2ccc(NC(=O)N(C)C)cc2)n1 [GSK-1070916] : 207.056
21) C[C@H](c1ccc(F)cc1)N(Cc1cccc(C(=O)O)c1)C(=O)c1cnc2ccccc2c1 [PF-05105679] : 111.508
22) CNc1cc(Oc2cc(C(=O)Nc3cc(N4CCN(C)CC4)cc(C(F)(F)F)c3)ccc2C)ncn1 : 75.5289
23) Cn1cc(CNCC2CCN(c3ncc(C(=O)NO)cn3)CC2)c2ccccc21 [QUISINOSTAT] : 37.1921
24) CCC(=O)Nc1cccc(Oc2nc(Nc3ccc(N4CCN(C)CC4)cc3OC)ncc2Cl)c1 : 105.023
25) CN1CCN(c2ccc(-c3cccc(CN4CCOCC4)c3)cc2NC(=O)c2c[nH]c(=O)cc2C(F)(F)F)CC1 : 116.555
26) O=C(Nc1cccnn1)N1CCC(=Cc2cccc(Oc3ccc(C(F)(F)F)cn3)c2)CC1 : 114.419
27) Cc1sc2c(c1C)C(c1ccc(Cl)cc1)=N[C@@H](CC(=O)NCCCCCCCCNC(=O)COc1cccc3c1C(=O)N(C1CCC(=O)NC1=O)C3=O)c1nnc(C)n1-2 (stereo not given in full) : 74.9854
28) NS(=O)(=O)c1cc(NC(=O)C2(c3ccccc3Cl)CC2)ccc1Oc1cccc(Cl)c1 [BAY-207] : 111.752
29) Cc1cc(-n2nc(Cc3cc(F)cc(C(F)(F)F)c3)nc2C)ccc1C(N)=O [TP-024] : 118.791
30) CC(=O)N1CCC(c2ccc(C(=O)NC(=N)N)cc2C(F)(F)F)CC1 [BI 9627] : 101.417
31) CC1=C(C)C(=O)C(C(C)(C)CC(=O)N(CCCCSC[C@H]2O[C@@H](n3cnc4c(N)ncnc43)[C@H](O)[C@@H]2O)Cc2cccc(-c3ccc(Cl)cc3)c2)=C(C)C1=O : 114.813
32) COc1cc(Nc2ccnc3ccc(Br)cc23)cc(OC)c1OC : 235.19
33) COc1cc2c(cc1-c1c(C)noc1C)ncc1[nH]c(=O)n([C@H](C)c3ccccn3)c12 : 172.215
34) CC1CCN(c2ccnc(NCc3cn(C)cn3)n2)CC1 [TP-040] : 95.0735
35) Cc1cc(C)cc(C(=O)NOCCCCCC(=O)NO)c1 : 402.959

---

Each item that follows carries a reported Cell Viability.
test system: Colon cancer organoid; assay: Identification of compartment-specific drug sensitivities in O20 CRC organoid-stroma F20 CAF co-cultures. Organoid is transduced with Lucferase2-P2A-EGFP lentivirus, fibroblast with Renilla-dsRed lentivirus. Dual-Glo Luciferase assay is used to report viability data.; type: functional, Homo sapiens; parameters: dose or concentration left out as unconfirmed; details: Transduced with Renilla-dsRed lentivirus
metric-name: Cell Viability (%)

1) O=C(Nc1cccnn1)N1CC(C/C=C/c2cncc(Oc3ccc(C(F)(F)F)cn3)n2)C1 : 112.944
2) Cc1nccc(COC(=O)N2C[C@@H]3[C@@H](CNC(=O)c4ccc5[nH]nnc5c4)[C@@H]3C2)n1 : 99.2728
3) CN(C)[C@@H]1CCN(c2cc(-c3ccccc3)nc3ccnn23)C1 [(R)-ZINC-3573] : 99.7993
4) CN(C)CCOc1ccc(-c2nc(-c3ccncc3)c(-c3ccc4c(c3)CC/C4=N\O)[nH]2)cc1 : 68.1541
5) Nc1nc(NCc2ccccc2)nc(-c2ccccc2CO)n1 : 98.0569
6) COCc1nc2cnc3cc(-c4c(C)noc4C)c(OC[C@H]4CCNC4)cc3c2n1[C@H](C)c1ccccc1 : 143.906
7) Cc1c(N2CCCC2)nc2ccc(Br)cc2c1C(=O)NC[C@H](CCC(=O)O)c1ccccc1Cl : 119.315
8) C[C@@H](NC(=O)Nc1cc2[nH]ncc2c(CO)n1)c1ccccc1 : 135.339
9) O=C(Nc1nc2cccc(-c3ccc(CN4CCS(=O)(=O)CC4)cc3)n2n1)C1CC1 : 86.0918
10) CC(C)Oc1ccc(-c2nn([C@@H](C)c3oc4ccc(F)cc4c(=O)c3-c3cccc(F)c3)c3ncnc(N)c23)cc1F : 87.858
11) CCCc1cc(C)[nH]c(=O)c1CNC(=O)c1cc(-c2ccc(N3CCN(C(C)C)CC3)nc2)cc2c1cnn2C(C)C : 157.842
12) Cc1c(NC(=O)c2cc(C(N)=O)nc3cc(F)ccc23)c(C(F)(F)F)nn1Cc1ccc(C#N)cc1 : 190.785
13) CCN(C(=O)CO)[C@H]1CN(/C(=N\C#N)Nc2cccc(OC(F)F)c2)N=C1c1ccc(Cl)c(Cl)c1 : 141.776
14) Cl.O=C(O)c1cc(-c2ccc(C3CCNCC3)cc2)c2ccc(-c3ccc(C(F)(F)F)cc3)cc2c1 : 101.384
15) COc1ccc(Cn2ccc3ccc(C(=O)NO)cc32)cc1 : 111.53
16) CN(C)C(=O)c1sc2nc(N3CCC(S(C)(=O)=O)CC3)cc(C(F)(F)F)c2c1N : 112.021
17) O=C(N[C@H]1CCCCC/C=C\C2C[C@@]2(C(=O)O)NC(=O)[C@@H]2C[C@@H](Oc3ccncc3)CN2C1=O)OC1CCCC1 (stereo partly drawn) : 110.731
18) CC(C)N(CCCNC(=O)Nc1ccc(C(C)(C)C)cc1)C[C@H]1O[C@@H](n2cc(Br)c3c(N)ncnc32)[C@H](O)[C@@H]1O : 110.156
19) O=C(NCC(=O)N1CCCC1)Nc1ccc2cnccc2c1 : 100.064
20) Cc1ccc(-c2ccc3c(ccc4sc5c(c43)NC[C@@H](C)NC5=O)n2)cn1 : 70.7863
21) CN(C)[C@H]1CN(C2CCc3cccc(F)c32)C[C@@H]1c1ccc(N2CCN(S(C)(=O)=O)CC2)cc1 (stereo partly drawn) : 145.189
22) CN(C(=O)c1cnn2cccnc12)c1cc2c(cc1N1CCOCC1)C(=O)N(C[C@@H](F)C(C)(C)O)C2 : 89.8275
23) CCc1cccc(CC)c1NC(=O)c1nn(C)c2c1CCc1cnc(Nc3ccc(C(=O)NC4CCN(C)CC4)cc3OC(F)(F)F)nc1-2 : 107.437
24) CN1CCN(c2ccnc(NCCc3ccccc3)n2)CC1 [TP-040n] : 97.5889
25) Cn1c(C2(NC(=O)c3ccc4c(C5CCCC5)c(-c5ncc(Br)cn5)n(C)c4c3)CCC2)nc2ccc(/C=C/C(=O)O)cc21 : 130.288
26) CCc1ccccc1C(=O)Nc1n[nH]c2c(C)c(F)c(C3C(C#N)=C(C)N(C)C(C)=C3C#N)cc12 : 157.673
27) O=C(NCc1ncc(C(F)(F)F)cc1Cl)c1ccc2c(c1)C1(CCS(=O)(=O)CC1)[C@@H](C1CC1)N2S(=O)(=O)c1ccc(F)cc1 : 106.984
28) Cl.Cn1cncc1[C@](O)(COc1ccc(C#N)cc1-c1ccc(OC(F)(F)F)cc1)c1ccc(C#N)cc1 : 150.357
29) Cl.Cl.Cl.c1ccc(N2CCN(Cc3nc4ccccc4[nH]3)CC2)nc1 : 124.541
30) O=C(O)c1ccc(-c2c[nH]c3ncc(-c4ccccc4)cc23)cc1C1CCCC1 : 129.576
31) Cc1ccc(NC(=O)Nc2cc(C(F)(F)F)ccc2F)cc1Nc1ccc2c(c1)NC(=O)/C2=C\c1ccc[nH]1 : 67.3177
32) O=C1[C@H](Cc2ccc(O)cc2)N2C(=O)CCN(C(=O)NCc3ccccc3)[C@H]2CN1Cc1cccc2ccccc12 : 144.616
33) C[C@@H](c1cccc(CN)c1)n1cc(Cl)cc(C(N)=O)c1=N.Cl : 93.567
